Parameter IC50: see the listing below.
- target: UniProt:P23743
- Sequence (P23743 other isoform, or with tags, fused parts or gaps): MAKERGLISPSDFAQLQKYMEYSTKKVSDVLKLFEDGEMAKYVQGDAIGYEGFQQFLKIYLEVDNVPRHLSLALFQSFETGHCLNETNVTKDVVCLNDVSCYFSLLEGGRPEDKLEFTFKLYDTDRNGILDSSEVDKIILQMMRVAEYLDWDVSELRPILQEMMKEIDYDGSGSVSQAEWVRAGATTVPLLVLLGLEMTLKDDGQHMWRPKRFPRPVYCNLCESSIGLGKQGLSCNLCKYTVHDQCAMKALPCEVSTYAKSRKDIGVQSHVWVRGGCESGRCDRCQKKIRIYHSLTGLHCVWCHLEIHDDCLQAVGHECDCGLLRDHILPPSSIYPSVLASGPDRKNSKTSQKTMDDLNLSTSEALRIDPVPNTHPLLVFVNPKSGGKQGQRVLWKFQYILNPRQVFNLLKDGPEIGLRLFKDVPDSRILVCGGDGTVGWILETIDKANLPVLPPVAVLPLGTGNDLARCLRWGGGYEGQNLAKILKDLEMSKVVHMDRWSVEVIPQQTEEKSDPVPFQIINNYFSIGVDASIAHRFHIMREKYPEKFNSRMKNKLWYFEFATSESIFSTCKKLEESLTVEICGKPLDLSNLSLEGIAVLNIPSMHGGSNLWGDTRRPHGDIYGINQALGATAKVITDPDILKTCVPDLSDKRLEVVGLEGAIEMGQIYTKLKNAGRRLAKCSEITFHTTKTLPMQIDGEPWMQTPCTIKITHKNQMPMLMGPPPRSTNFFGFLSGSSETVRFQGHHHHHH
- assay_comment: biochemical
- condition: detergent/lipid micelle substrate; read-out: DGKα IC50
Note: unit nM is implicit; provide only the numeric part.

# count of solved cases: 6
>  <compound>
Cn1c(=O)c(C#N)c(N2CCN(Cc3ccc(F)c(F)c3)CC2)c2nc(Cl)ccc21 [Example 319]

>  <target>
UniProt:P23743

>  <measured_result>
550

$$$$
>  <compound>
Cn1c(=O)c(C#N)c(N2CCN(Cc3ccc(O)c(F)c3)CC2)c2nc(Cl)ccc21 [Example 357]

>  <target>
UniProt:P23743

>  <measured_result>
28

$$$$
>  <compound>
C#CCOc1ccccc1C(c1ccc(F)cc1)N1CCN(c2c(C#N)c(=O)n(C)c3ccc(Br)nc23)CC1 (single isomer, unassigned) [Example 7]

>  <target>
UniProt:P23743

>  <measured_result>
500

$$$$
>  <compound>
COCCOCCCn1c(=O)c([N+](=O)[O-])c(N2CCN(C(c3ccccc3)c3ccccc3)CC2)c2ncccc21 [Example 189]

>  <target>
UniProt:P23743

>  <measured_result>
130000

$$$$
>  <compound>
CCC(c1ccc(F)cc1)N1CCN(c2c(C#N)c(=O)n(C)c3ccc(Br)nc23)CC1 (single isomer, unassigned) [Example 26]

>  <target>
UniProt:P23743

>  <measured_result>
4300

$$$$
>  <compound>
Cn1c(=O)c(C#N)c(N2CCN(Cc3cc(F)cc(C(F)(F)F)c3)CC2)c2nc(Cl)ccc21 [Example 313]

>  <target>
UniProt:P23743

>  <measured_result>
1500

$$$$

Task item: Report IC50 on UniProt:P23743 for this entry: C#CCOc1ccccc1C(c1ccc(F)cc1)N1CCN(c2c(C#N)c(=O)n(C)c3ccc(Br)nc23)CC1 (single isomer, unassigned) [Example 6]
Reply: 6500

Task item: Check UniProt:P23743 data and give IC50 for C#CCn1c(=O)c([N+](=O)[O-])c(N2CCN(C(c3ccc(F)cc3)c3ccccc3OC)CC2)c2nc(C#N)ccc21 (single isomer, unassigned) [Example 130] .
Reply: 30000

* * *

- Test system: pre-activated CD4 T cells and Raji cells
- assay_comment: Raji CD4 T Cell IL2 Assay
- Type: cell-based
Field 'label' (enum: 1.0 / 0.0). Set to 1.0 when IC50 is strictly under 0.1 µM; else 0.0.

>  <compound>
COc1cc(F)ccc1C(c1ccc(F)cc1)N1CCN(c2c([N+](=O)[O-])c(=O)n(C)c3ccc(Br)nc23)CC1 (single isomer, unassigned) [Example 58]

>  <target>
pre-activated CD4 T cells and Raji cells

>  <class>
1.0

$$$$
>  <compound>
C=CCOc1cccc(C)c1C(c1ccc(F)cc1)N1CCN(c2c([N+](=O)[O-])c(=O)n(C)c3ccc(Br)nc23)CC1 (single isomer, unassigned) [Example 96]

>  <target>
pre-activated CD4 T cells and Raji cells

>  <class>
0.0

$$$$
>  <compound>
CCC(c1ccc(F)cc1)N1CCN(c2c(C#N)c(=O)n(C)c3ccc(Br)nc23)CC1 (single isomer, unassigned) [Example 27]

>  <target>
pre-activated CD4 T cells and Raji cells

>  <class>
1.0

$$$$
>  <compound>
COc1cc(F)ccc1C(c1ccc(F)cc1)N1CCN(c2c([N+](=O)[O-])c(=O)n(C)c3ccc(Br)nc23)CC1 (single isomer, unassigned) [Example 57]

>  <target>
pre-activated CD4 T cells and Raji cells

>  <class>
0.0

$$$$

Task item: Field: below-cutoff. Rule: recorded IC50 strictly less than 0.1 µM. Subject: Cn1c(=O)c([N+](=O)[O-])c(N2CCN(C(c3ccc(F)cc3)C3CC3)CC2)c2nc(C#N)ccc21 (single isomer, unassigned) [Example 51]
Reply: 1.0
